measurement target: T1, human plasma kallikrein (human, UniProt P03952 20-390; P03952 391-638)
T1 construct: also called pKal; Human pKal
T1 sequence (P03952 20-390, chain 1 of 2): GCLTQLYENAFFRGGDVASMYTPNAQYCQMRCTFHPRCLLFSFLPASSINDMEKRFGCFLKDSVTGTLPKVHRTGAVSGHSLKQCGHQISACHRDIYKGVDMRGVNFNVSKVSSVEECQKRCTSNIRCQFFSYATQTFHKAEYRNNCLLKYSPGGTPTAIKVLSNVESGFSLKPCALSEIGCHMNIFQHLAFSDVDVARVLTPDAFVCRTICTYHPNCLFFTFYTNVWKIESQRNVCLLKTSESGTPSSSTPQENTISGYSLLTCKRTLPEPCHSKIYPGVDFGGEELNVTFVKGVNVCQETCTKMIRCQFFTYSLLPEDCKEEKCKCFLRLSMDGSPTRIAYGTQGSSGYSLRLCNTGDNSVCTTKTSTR
T1 sequence (P03952 391-638, chain 2 of 2): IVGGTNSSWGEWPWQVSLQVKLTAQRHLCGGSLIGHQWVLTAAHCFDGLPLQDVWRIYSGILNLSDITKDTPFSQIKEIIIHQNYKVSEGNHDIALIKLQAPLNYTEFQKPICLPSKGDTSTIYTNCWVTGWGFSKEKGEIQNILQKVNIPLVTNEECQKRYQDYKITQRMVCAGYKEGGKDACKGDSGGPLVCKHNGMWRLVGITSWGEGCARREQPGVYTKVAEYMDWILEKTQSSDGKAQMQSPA
method: ELISA, biotinylated pKal signal over streptavidin background
# ELISA (T/B) values compiled below
experimental endpoint: ELISA (T/B)

M10-C11 (Fab, V domains shown, HC as printed runs into CH1) VH: EVQLLESGGGLVQPGGSLRLSCAASGFTFSMYPMMWVRQAPGKGLEWVSYISPSGGMTDYADSVKGRFTISRDNSKNTLYLQMNSLRAEDMAVYYCARVAGSSDAFDIWGQGTMVTVSS VL: DIQMTQSPSSLSASVGDRVTITCRASQSISIYLNWYQQKPEKAPKLLIFAASTLQSGVPSRFSGSGSGTDFTLTISNLQPEDFATYYCQQSHSIPPTFGLGTKVEVK
5.3
M162-A04 (Fab) (Fab, V domains shown, Non-germlined Fab discovered using phage display; HC as printed runs into CH1) VH: EVQLLESGGGLVQPGGSLRLSCAASGFTFSHYIMMWVRQAPGKGLEWVSGIYSSGGITVYADSVKGRFTISRDNSKNTLYLQMNSLRAEDTAVYYCAYRRTGIPRRDAFDIWGQGTMVTVSS VL: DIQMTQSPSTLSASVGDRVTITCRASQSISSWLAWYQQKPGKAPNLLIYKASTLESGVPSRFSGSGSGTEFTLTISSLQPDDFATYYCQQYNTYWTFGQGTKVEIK
11.4
